# study target: recombinant human ChAT (rChAT) (Homo sapiens, UniProt P28329)
# Construct: recombinant human ChAT corresponding to residue 119-748; His tag (N-histidine tag) (N)
# Sequence (P28329 119-748): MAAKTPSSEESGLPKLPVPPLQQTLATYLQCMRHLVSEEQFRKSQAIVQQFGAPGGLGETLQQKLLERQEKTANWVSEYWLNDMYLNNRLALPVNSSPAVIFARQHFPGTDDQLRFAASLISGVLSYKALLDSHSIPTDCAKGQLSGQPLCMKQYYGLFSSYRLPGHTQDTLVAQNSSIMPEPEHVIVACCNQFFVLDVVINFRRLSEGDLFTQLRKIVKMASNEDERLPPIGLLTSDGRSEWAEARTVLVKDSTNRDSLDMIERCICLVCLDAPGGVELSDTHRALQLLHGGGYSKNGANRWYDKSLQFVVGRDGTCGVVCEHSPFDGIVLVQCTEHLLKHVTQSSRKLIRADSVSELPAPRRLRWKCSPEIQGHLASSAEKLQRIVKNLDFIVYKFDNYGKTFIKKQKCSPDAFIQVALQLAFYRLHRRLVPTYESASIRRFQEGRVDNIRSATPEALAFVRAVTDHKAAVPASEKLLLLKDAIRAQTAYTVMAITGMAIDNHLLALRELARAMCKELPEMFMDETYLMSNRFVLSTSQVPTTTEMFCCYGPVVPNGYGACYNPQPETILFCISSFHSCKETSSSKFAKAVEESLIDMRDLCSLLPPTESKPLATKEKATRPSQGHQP
# method description: Choline acetyltransferase (ChAT) colorimetric activity assay
# condition info: preincubation of 0.4 mg/mL rChAT with inhibitor, room temperature 30 minutes (FIG. 7E)
result type: pIC50
Give bare numbers, as −log10 of the molar value.

[in] Short answer please: pIC50, recombinant human ChAT (rChAT) (Homo sapiens, UniProt P28329), entry C[N+](C)(C)CCC(=O)c1cccc2ccccc12 [alpha-NETA, reference compound]
[out] 6.83
